Procedure Details: Toxicity liver stage against HepG2, at 10uM
Format: cell-based
Design: test concentration 10 uM, cell line HepG2-A16-CD81EGFP
Stated Conditions: human, HepG2-A16-CD81EGFP cells; read-out: INHIBITION
Assign cytotoxicity at 10 µM to each entry below.
API: value field is a number in %; no unit string.

Requested read-out: cytotoxicity at 10 µM. Entry: CC(=O)N1CC(=O)N(c2cnn(C)c2)CC12CCN(Cc1nccs1)C2 (stereo not given) 6.03

What value of cytotoxicity at 10 µM has been recorded for this entry: "CN(CC(=O)N1CCC(N(C)c2ccccc2)CC1)c1cnccn1" -6.6

GET /values?readout=cytotoxicity at 10 µM&item= O=C(NCc1ccc(-n2cncn2)nc1)N(CC1CCOC1)C1CC1 (stereo not given) 1.74

Returns the measured cytotoxicity at 10 µM for the input compound. Input: OC(COc1ccccc1)CN1CCC(c2ccn[nH]2)CC1 (stereo not given) -3.76

Need cytotoxicity at 10 µM, item Cc1cnn(CC2CN(Cc3nc(C)no3)CCO2)c1 (stereo not given) -18.5

====

Procedure Details: Toxicity liver stage against HepG2, at 10uM
Assay type: cell-based
Design: test concentration 10 uM, cell line HepG2-A16-CD81EGFP
Stated Conditions: human, HepG2-A16-CD81EGFP cells; read-out: INHIBITION
Observed Property: cytotoxicity at 10 µM (%)
Lab book: enter the figure in %, no units written.

Field request: cytotoxicity at 10 µM | item: "CN1CCNC(=O)C12CCN(C(=O)c1ccc3[nH]c(=O)[nH]c3c1)CC2" 0.5

# input compound: "COCC(=O)N1CCN(c2cc(-n3cccc3)nc(C)n2)CC1" ; wanted: its cytotoxicity at 10 µM -6.81

What does the record list as cytotoxicity at 10 µM for Cc1ccc(C(O)CN(C)Cc2cnn(C)c2)cc1C (stereo unspecified) ? -5.37

Which measured cytotoxicity at 10 µM value corresponds to O=C(c1cc2c(s1)CCOC2)N1CCCC1Cn1cccn1 (stereo unspecified) ? -2.06

Value lookup for cytotoxicity at 10 µM; key = "Cc1nccn1CC(=O)N1CC(Cc2nccc3ccn(C)c23)C1" -23.4

Record request: cytotoxicity at 10 µM value, item c1csc(C(CNCc2cccc3c2OCO3)N2CCOCC2)c1 (stereo unspecified) -44.4

Please give the measured cytotoxicity at 10 µM for this compound: "Cc1ccc(S(=O)(=O)N2CC[C@@H](O)C2)c(F)c1" -10.2

Please give the measured cytotoxicity at 10 µM for this compound: "Cc1nnc2n1CCN(C(=O)c1cc(Br)c[nH]1)C2" -10.7

Look up cytotoxicity at 10 µM for this compound: "Cc1cc(C)c2nc(C)c(C(=O)N3CCC(N4CCCC4)CC3)cc2c1" -3.19

May I ask what cytotoxicity at 10 µM has been recorded for COCCC(=O)N1CCCC1c1csc(Nc2ncccn2)n1 (stereo unspecified) ? -4.33

Recorded cytotoxicity at 10 µM for CS(=O)(=O)CCN(CCCO)C1CCc2ccccc21 (stereo unspecified) , please? 7.37

====

Procedure Details: Toxicity liver stage against HepG2, at 10uM
Assay type: cell-based
Parameters: test concentration 10 uM, cell line HepG2-A16-CD81EGFP
Stated Conditions: human, HepG2-A16-CD81EGFP cells; read-out: INHIBITION
What cytotoxicity at 10 µM was measured for each of the following?
Reply numerically in %, unit not repeated.

Reported cytotoxicity at 10 µM, compound "O=c1n(CCn2cccc2)nc(C2CCNCC2)n1Cc1ccccc1" : ____ -2.06

Sample "Cc1nn(C)c(N(C)C)c1CNCc1ccc(N(C)C)nc1" — what was its cytotoxicity at 10 µM? -1.24

Entry under review: "Cc1ccc(C(=O)N2C[C@@H]3OCCN(CCN4CCCC4)[C@@H]3C2)cn1" . Reported cytotoxicity at 10 µM? 2.39

Given the compound "CCc1noc(CN(C)CCC(=O)Nc2ccc(C#N)c(Cl)c2)n1" , what is its reported cytotoxicity at 10 µM? 22.5

What does the record list as cytotoxicity at 10 µM for Cc1ccc(C)c(CSc2nnc(C(N)C(C)C)o2)c1 (stereo unspecified) ? 9.24

Requested read-out: cytotoxicity at 10 µM. Entry: COc1ccc(N2CCN(CC(O)c3ccc(C)cc3C)CC2)cc1 (stereo unspecified) 11.8

Query (compound): CC(=O)N1CCCN(c2cc(C3CN(C)CCO3)nc(C)n2)CC1 (stereo unspecified) ; field requested: cytotoxicity at 10 µM 7.47

I would be grateful if you could share the reported cytotoxicity at 10 µM for "CCn1cnc(NC(=O)NCC2CCS(=O)(=O)CC2)n1" . 5.08

Item COc1ccc(CNC(=O)N2CCC(Cc3cnn(C)c3)C2)cc1C (stereo unspecified) has what recorded cytotoxicity at 10 µM? -9.52

What does the record list as cytotoxicity at 10 µM for COCCN1CCCC(c2cncc(Oc3ccccc3OC)n2)C1 (stereo unspecified) ? -22.8

Which cytotoxicity at 10 µM is listed for O=C(O)c1ccc(CN2CCCC(Cc3ccn[nH]3)C2)cc1 (stereo unspecified) ? -6.08

What value of cytotoxicity at 10 µM has been reported for the following compound? "Cc1ccc(C(=O)Nc2ccc(N(C)C)nc2)n1C" -9.38

Which cytotoxicity at 10 µM value is on record for "CCC1=N[C@@]2(CC[C@@H]3CN(C(=O)NCC(C)C)C[C@@H]32)C(=O)N1CC1CC1" ? 9.61

Dear colleague, I am looking for the recorded cytotoxicity at 10 µM of the following compound: "CCC[C@@H](NC(N)=O)C(=O)N1CCc2c(Cl)cccc2C1" 5.79

Any idea what its cytotoxicity at 10 µM is? The compound is "Cn1c(=O)ccn(CC(=O)Nc2cccnc2)c1=O" -1.58

Name the recorded cytotoxicity at 10 µM for "Cn1ccc(C(=O)N2CCc3[nH]nc(Nc4ccccc4)c3C2)n1" . 5.21

What does the data say about its cytotoxicity at 10 µM? Entry: "COc1ccccc1OCC(=O)n1ncc(C#N)c1N" -20

Given the entry Cc1nn(C)c2nc(N(CCN(C)C)CC3CCCO3)sc12 (stereo unspecified) , report its measured cytotoxicity at 10 µM. -4.62

Entry Cc1cc(C)n(CC2CCN(CC(O)CN3CCOCC3)CC2)n1 (stereo unspecified) : reported cytotoxicity at 10 µM = ? -7.35

Which cytotoxicity at 10 µM value is on record for "Cc1ccc(S(=O)(=O)N2CCC(Cn3cc(C(C)(C)N)nn3)CC2)s1" ? 6.74

// cytotoxicity at 10 µM lookup, key: Cc1cc(C)c(C(=O)NC2CCCc3nc(N(C)C)ncc32)cc1C (stereo unspecified) -1.25

Entry "FC(F)(F)c1nnc2n1CCN(c1nc(C3CC3)ns1)C2" : reported cytotoxicity at 10 µM = ? 8.21

Any idea what its cytotoxicity at 10 µM is? The compound is CC(=O)N1CCN(c2cc(C3CN(C)CCO3)nc(C)n2)CC1 (stereo unspecified) 1.05

Given CC(=O)N(Cc1noc(C)n1)C1CCN(Cc2c(C)noc2C)C1 (stereo unspecified) , state its recorded cytotoxicity at 10 µM. -9.55

Give its cytotoxicity at 10 µM value. Item: "CCn1cc(CN2CCN(C(=O)c3cc(C)c(C)s3)CC2)c(C)n1" 2.07

Value lookup for cytotoxicity at 10 µM; key = "CC(C)CC(=O)N1CC[C@@H]2CN(CC(=O)N(C)C)S(=O)(=O)[C@@H]2CC1" 10

====

Exercise: state measured cytotoxicity at 10 µM for each of the compounds provided.
Procedure Details: Toxicity liver stage against HepG2, at 10uM
Assay type: cell-based
Set-up: test concentration 10 uM, cell line HepG2-A16-CD81EGFP
Stated Conditions: human, HepG2-A16-CD81EGFP cells; read-out: INHIBITION
Return type: number; implicit unit %.

cytotoxicity at 10 µM lookup needed for "Cc1nc(CN2CCc3cncnc3C2)oc1C" , thanks. -12

So what's the measured cytotoxicity at 10 µM for this one? O=C(c1cocn1)N1CCC2(CC1)COC(COCc1ccccn1)C2 (stereo not drawn) -116

Report cytotoxicity at 10 µM for "Cc1ccc(Cl)cc1NS(=O)(=O)c1cc(C(N)=O)n(C)c1" please. 3.8

Please look up its cytotoxicity at 10 µM: COC1(CNC(=O)c2cccc(C#N)c2)CCSC1 (stereo not drawn) -7.93

Record request: cytotoxicity at 10 µM value, item "O=C(COCC(=O)N(c1ccccc1)c1ccccc1)N1CCOCC1" 1.64

Please give the measured cytotoxicity at 10 µM for this compound: COc1cccc2c1OCC(C(=O)N1CCC(N3CCOC3=O)CC1)C2 (stereo not drawn) -19.7

Query: cytotoxicity at 10 µM; subject: "Cc1ccc(N2CC[C@@H]3CN(Cc4cc[nH]n4)C[C@@H]3C2)nn1" 3.47

# get_value(readout='cytotoxicity at 10 µM', item= "c1coc(CN2CCO[C@H]3[C@H](OCC4CCCC4)CC[C@@H]32)c1" ) 19.7
